Biological target: human renin (Homo sapiens, UniProt P00797)
Sequence (P00797 67-406): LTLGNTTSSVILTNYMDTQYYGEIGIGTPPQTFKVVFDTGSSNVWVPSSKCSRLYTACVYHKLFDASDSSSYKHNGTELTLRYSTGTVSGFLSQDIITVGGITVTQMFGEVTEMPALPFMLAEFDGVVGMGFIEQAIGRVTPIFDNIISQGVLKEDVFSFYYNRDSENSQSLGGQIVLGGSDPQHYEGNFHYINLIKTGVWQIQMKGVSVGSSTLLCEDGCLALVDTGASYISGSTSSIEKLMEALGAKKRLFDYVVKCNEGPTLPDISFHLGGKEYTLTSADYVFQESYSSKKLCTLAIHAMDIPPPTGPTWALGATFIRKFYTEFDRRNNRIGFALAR
Assay: Human Renin Inhibition in vitro
Conditions: pH 7.4, 2 h at 37° C., human plasma, angiotensin I by radioimmunoassay
quantity.name: IC50 (nM)

molecule: CC(C)C[C@H](O)[C@H](O)[C@H](CC1CCCCC1)NC(=O)[C@H](CC1CC1)NC(=O)C(Cc1ccccc1)CS(=O)(=O)C(C)(C)C (some centres unmarked)
assay.result: 0.3
//
molecule: CC(C)C[C@H](O)[C@H](O)[C@H](CC1CCCCC1)NC(=O)[C@H](CC1CC1)NC(=O)C(CSC(C)(C)C)Cc1ccccc1 (some centres unmarked)
assay.result: 2.7

Origin of the recorded values: patent US5317039A
